# Tested on: HEK293 NF-kB-luciferase reporter cells
# methodSummary: NF-kB luciferase reporter activity, robust Z-score vs plate median (robust Z-score (log luminescence)); higher = stronger NF-kB reporter activation
# experimentalParameters: TNF 0 ng/mL; TNF treatment time 8.5 h; transfection time 72 h
Please enter rule met where NF-kB luciferase reporter activity is greater than or equal to 0.8, and rule not met where it is lower.

Check out these entries, answers already filled in.
1. UCAAGAGCAAUAACGAAAAAUGU rule not met
2. CAGUGCAAUAGUAUUGUCAAAGC rule not met
3. CAAAGCGCUUCCCUUUGGAGC rule not met
4. CCUCUGGGCCCUUCCUCCAG rule met
5. CUGGCCCUCUCUGCCCUUCCGU rule not met
6. AAAGCGCUUCUCUUUAGAGGA rule not met
7. ACAUAGAGGAAAUUCCACGUUU rule not met
8. UACUCAGGAGAGUGGCAAUCACA rule met

Query block: Confirm if NF-kB luciferase reporter activity reported for the sequence AUUGACACUUCUGUGAGUAG is 0.8 or above.
Result block: rule not met

Query block: hey, is NF-kB luciferase reporter activity for this one >= 0.8? AGUGGGGAACCCUUCCAUGAGGA
Result block: rule not met

Query block: Kindly determine if NF-kB luciferase reporter activity recorded for AAAGUGCAUCUUUUUAGAGGAU is above or exactly 0.8.
Result block: rule not met

Query block: Hello, I need to know if AAUAUAACACAGAUGGCCUGU has measured NF-kB luciferase reporter activity not below 0.8. Thanks!
Result block: rule not met

Query block: Assess whether reported NF-kB luciferase reporter activity for AGAGGCUGGCCGUGAUGAAUUC sits at 0.8 or higher.
Result block: rule met

Query block: Does AACUGGCCCUCAAAGUCCCGCUUU have a reported NF-kB luciferase reporter activity of at least 0.8?
Result block: rule met

Query block: hey, is NF-kB luciferase reporter activity for this one >= 0.8? CUCCAGAGGGAUGCACUUUCU
Result block: rule not met

----------
# Test system: HEK293 NF-kB-luciferase reporter cells
# methodSummary: NF-kB luciferase reporter activity, robust Z-score vs plate median (robust Z-score (log luminescence)); higher = stronger NF-kB reporter activation
# experimentalParameters: TNF 40 ng/mL; TNF treatment time 8.5 h; transfection time 72 h
Measured NF-kB luciferase reporter activity accompanies every entry in the list below.
Please give the numeric answer without any surrounding text.

1. UGAUUGGUACGUCUGUGGGUAGA -0.97

Attention now shifts to the item below.
Query block: For HEK293 NF-kB-luciferase reporter cells, give the measured NF-kB luciferase reporter activity of the entry ACUCAAAAUGGGGGCGCUUUCC
Result block: 0.907

----------
# System: HEK293 NF-kB-luciferase reporter cells
# methodSummary: NF-kB luciferase reporter activity, robust Z-score vs plate median (robust Z-score (log luminescence)); higher = stronger NF-kB reporter activation
# experimentalParameters: TNF 0 ng/mL; TNF treatment time 8.5 h; transfection time 72 h
Listed below: NF-kB luciferase reporter activity values for each entry.
Give the figure only, with no unit attached.

1) CAUCUGGAGGUAAGAAGCACUUU 0.889
2) GCAAAGCACACGGCCUGCAGAGA -0.287
3) UGGUUUACCGUCCCACAUACAU -0.822
4) UUCUCCAAAAGGGAGCACUUUC 1.07
5) CAACGGAAUCCCAAAAGCAGCU 0.539
6) UAGGUAGUUUCCUGUUGUUGG -1.2
7) UCGUGCAUCCCUUUAGAGUGUU 1.73

Attention now turns to another entry.
Query block: Return value of NF-kB luciferase reporter activity for input UCCAGCAUCAGUGAUUUUGUUGA , no commentary.
Result block: 0.425
